System: Monocotyledonous and dicotyledonous test plants
assay name: Example B1 herbicidal action, application pre-emergence (Table B1b)
Type: in vivo
condition context: Amaranthus, 250 g/ha, evaluated after 4 weeks
Description: Monocotyledonous and dicotyledonous test plants were sown in seed trays in standard soil. […] After a test duration of 3 weeks (post-emergence) or 4 weeks (pre-emergence), the test was evaluated (10=total damage to plant, 0=no damage to plant).
endpoint label: herbicidal action (damage rating 0-10), Amaranthus

compound: CC1(C)CC(S(=O)(=O)C(Br)c2c(F)cccc2F)=NO1 (stereo not drawn)
reading: 10
--
compound: Cc1cc(C(F)S(=O)(=O)C2=NOC(C)(C)C2)no1 (stereo not drawn)
reading: 10
--
compound: CC1(C)CC(S(=O)(=O)C(C(N)=O)c2c(F)cccc2F)=NO1 (stereo not drawn)
reading: 7
--
compound: CC(=O)O/C(C)=C(/c1c(F)cccc1F)S(=O)(=O)C1=NOC(C)(C)C1
reading: 7
--
compound: CC1(C)CC(S(=O)(=O)C(F)(Cl)c2c(F)cccc2F)=NO1 (stereo not drawn)
reading: 10
--
compound: Cn1nc(C(F)(F)F)c(C(F)(F)S(=O)(=O)C2=NOC(C)(C)C2)c1Cl
reading: 10
--
compound: CC1(C)CC(S(=O)(=O)C(F)(I)c2c(F)cccc2F)=NO1 (racemic)
reading: 10
--
compound: CC1(C)CC(S(=O)(=O)C(Cl)(Br)c2c(F)cccc2F)=NO1 (stereo not drawn)
reading: 9
--
compound: CC1(C)CC(S(=O)(=O)C(F)(F)c2ccccc2F)=NO1
reading: 10
